Reference source for all entries: PubChem BioAssay (NCI)

Assay: NCI Yeast Anticancer Drug Screen. Data for the rad50 strain (AID 155);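 further: 0% = growth of vehicle-only cultures of the same strain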
Settings: S. cerevisiae rad50 strain growth inhibition; at 50.0 µM; stronger effect = higher value
The panel holds about 79,000 compounds, 15% with a hit somewhere; the sample as a whole holds those more often. The source made the active and inactive calls. No stated cut-off is given here; in the data, active means growth inhibition above about 70%; inactive means the rest.
Provide the reported growth inhibition of each item.

Tell me measured growth inhibition for O=[N+]([O-])c1cc([N+](=O)[O-])c2ccccc2c1NS(=O)(=O)/C=C/c1ccccc1 please.
53% (inactive)

Tell me measured growth inhibition for COC1OC2COC(c3ccccc3)OC2C2OC12 (centres undefined) please.
-7.7% (inactive) [middle of 4 runs]

Tell me measured growth inhibition for COc1ccc(/C=C2\C=Nc3ccccc32)cc1 please.
12.7% (inactive)

Tell me measured growth inhibition for COc1ccc(COc2ccc(C(=O)CCN3CCOCC3)cc2)cc1 please.
96.8% (active)

Tell me measured growth inhibition for O=C(c1ccco1)N(C(=S)N1CCN(c2ccccn2)CC1)C1CCCCC1 please.
73.3% (active)

Tell me measured growth inhibition for C1=C(c2ccccc2)N(CCc2ccccc2)C(c2ccccc2)=CN1Cc1ccccc1 please.
98.4% (active)

Tell me measured growth inhibition for Cc1ccc(C23C=CC(c4ccccc4)(C2)C2C(=O)OC(=O)C23)cc1 (centres undefined) please.
98.5% (active)

Tell me measured growth inhibition for C/C(N=NC(=S)N1CCCCCC1)=C1\C=CC=CN1O please.
72.9% (active)

Tell me measured growth inhibition for COc1ccc2c(c1)C(Cc1ccc(Oc3ccc(CC4c5cc(OC)ccc5CC[N+]4(C)C)cc3)cc1)[N+](C)(C)CC2 (centres undefined) please.
96.8% (active)

Tell me measured growth inhibition for CCCn1cnc2c(SCc3ccc(Cl)cc3)nc(N)nc21 please.
96.9% (active)

Tell me measured growth inhibition for CN(C)CCNc1ccc(CO)c2oc3ccc(O)cc3c(=O)c12 please.
26.5% (inactive)

Tell me measured growth inhibition for CCCCCCN(CCCCCC)C(=O)C1=C(C)NC(C)=C(C(=O)N(CCCCCC)CCCCCC)C1 please.
56.4% (inactive)

Tell me measured growth inhibition for CSc1ccc(N2C(=O)CSC2=S)cc1Cl please.
97.5% (active)

Tell me measured growth inhibition for O=Cc1cc([N+](=O)[O-])cc(CCl)c1O please.
20.7% (inactive)

Tell me measured growth inhibition for O=NC1C(Br)C2CC1C1C(Cl)C(Cl)CC21 (centres undefined) please.
58.7% (inactive)

Tell me measured growth inhibition for CCSSc1ccccc1C(=O)NC(CC)CO (centres undefined) please.
73.5% (active)

Tell me measured growth inhibition for Cc1ccc(CC(=O)c2c(C)[nH]c3ccccc23)cc1C please.
95.7% (active)

Tell me measured growth inhibition for CC(C)OP(=O)(OC(C)C)C(=Nc1ccccc1)NNc1ccc([N+](=O)[O-])cc1 please.
71.1% (active)

Tell me measured growth inhibition for Cc1cccc2c1Oc1cc(Cl)ccc1C2NC(=O)CCN1CCCCC1 (centres undefined) please.
85.2% (active)

Tell me measured growth inhibition for CNC(=O)OCCN1c2ccccc2Sc2ccccc21 please.
89.5% (active)

Tell me measured growth inhibition for COc1nc2nc(C(O)C(O)CO)cnc2c(=O)n1C (centres undefined) please.
-5.55% (inactive) [middle of 4 runs]

Tell me measured growth inhibition for CCCCCCCCCCCCCCCC[N+](C)(C)c1nc(Cl)nc(Cl)n1 please.
99.3% (active)

Tell me measured growth inhibition for O=C1C=CC(=O)C(C2OC(=O)C(Br)=C2Br)=C1 (centres undefined) please.
6.95% (inactive)

Tell me measured growth inhibition for S=c1nc[nH]c2[nH]ccc12 please.
10.1% (inactive)
